# tested system: Dual specificity protein phosphatase 6 (Rattus norvegicus, UniProt Q64346)
# Sequence (Q64346 whole entry): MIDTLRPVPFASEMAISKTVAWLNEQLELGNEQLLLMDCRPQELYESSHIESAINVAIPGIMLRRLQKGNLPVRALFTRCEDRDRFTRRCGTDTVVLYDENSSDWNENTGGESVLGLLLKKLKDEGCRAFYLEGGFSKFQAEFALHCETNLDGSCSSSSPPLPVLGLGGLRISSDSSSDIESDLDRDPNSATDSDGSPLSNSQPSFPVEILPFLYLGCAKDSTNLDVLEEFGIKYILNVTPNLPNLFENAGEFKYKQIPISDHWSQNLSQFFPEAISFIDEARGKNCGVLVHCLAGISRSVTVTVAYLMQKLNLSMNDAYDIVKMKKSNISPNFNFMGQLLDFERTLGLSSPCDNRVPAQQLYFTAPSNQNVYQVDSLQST
Please find below IC50 data on Dual specificity protein phosphatase 6 (Rattus norvegicus, UniProt Q64346) compiled from the literature.

Example entries begin here.
| compound | IC50 |
| --- | --- |
| CCc1ccc(NC(=O)CSc2nc3ccccc3c(=O)n2CCN2CCOCC2)cc1 | > 50 µM |
| Cc1ccccc1Nc1cc2ccccc2c(O)n1 | 12.1 µM |
| N#Cc1c(N2CCCC2)nc(N)c2c(N)nc(N3CCCC3)cc12 | 3.43 µM |

Give IC50 for each of the items listed below.
1. Cc1ccc(/C=C/C2=Cc3c(sc(NC(=O)CSc4nnc(N)[nH]4)c3C#N)C(C)(C)C2)o1
2. Cc1cc(=O)oc2cc(OCC(=O)N/N=C/C3C=C([N+](=O)[O-])C=CC3=O)ccc12 (centres undefined)
3. CCCCC[C@H](O)C=C[C@H]1C=CC(=O)[C@@H]1C/C=C\CCCC(=O)O
4. CCOc1cc(/C=C(/C#N)c2ccc(F)cc2)ccc1OCc1ccc(C(=O)O)o1

1. > 50 µM
2. 24 µM
3. > 50 µM
4. > 50 µM

Give IC50 for each of the items listed below.
1. COC(=O)c1ccccc1NC(=O)CN1C(=O)C2CCCN2c2ncc(Cl)cc21 (centres undefined)
2. CCCCn1c(SCC(=O)c2ccc(OC)cc2OC)nc2cc(S(N)(=O)=O)ccc21

1. > 50 µM
2. > 50 µM

---

pIC50: −log10 of the molar value.
Please find below pIC50 data on Dual specificity protein phosphatase 6 (Rattus norvegicus) compiled from the literature.

Example entries begin here.
| compound | result |
| --- | --- |
| O=C1C=Cc2ccccc2/C1=C/NC12CN3CCN(CN(C3)C1)C2 | < 4.30 |
| Cc1ccc2c(c1)C1C=CCC1C(C(=O)O)N2 (stereo not drawn) | < 4.30 |
| Cc1ccc(C)n1-c1cccc(C(=O)O)c1 | < 4.30 |

Give pIC50 for each of the items listed below.
1. COc1ccc2noc3c2c1C(=O)c1ccccc1-3
2. COc1cccc2c1NC(C(=O)O)C1CC=CC21 (stereo not drawn)
3. O=NCc1cccn1-c1cccc(C(=O)O)c1
4. Cc1c(N=c2c(=O)c3ccccc3c2=O)c(=O)n(-c2ccccc2)n1C
5. COc1cccc2c(C)c(C(=O)O)[nH]c12

1: 4.65; 2: < 4.30; 3: 5.00; 4: 4.70; 5: < 4.30

---

Please find below IC50 data on Dual specificity protein phosphatase 6 (Rattus norvegicus) compiled from the literature.

Example entries begin here.
| compound | tested system | IC50 |
| --- | --- | --- |
| Nc1cccc2cnccc12 | Dual specificity protein phosphatase 6 (Rattus norvegicus) | > 50 µM |
| CC(=O)Nc1cc(OC(C)=O)c2nonc2c1OC(C)=O | Dual specificity protein phosphatase 6 (Rattus norvegicus) | > 50 µM |
| COc1ccc(Br)cc1C=c1sc2nc(-c3ccco3)nn2c1=O | Dual specificity protein phosphatase 6 (Rattus norvegicus) | > 50 µM |
| CC(C)(C)N1C(=O)Cc2c1nc(N)c1c(N)nc(N3CCCCC3CO)c(C#N)c21 (stereo not given) | Dual specificity protein phosphatase 6 (Rattus norvegicus) | > 50 µM |
| Nc1nc2c(s1)CCc1c-2cnn1-c1ccccc1 | Dual specificity protein phosphatase 6 (Rattus norvegicus) | > 50 µM |
| CCOc1cc(CN=Nc2nc(O)c(CC(=O)O)s2)ccc1OCc1ccc(Cl)cc1Cl | Dual specificity protein phosphatase 6 (Rattus norvegicus) | 25.6 µM |
| CC(=O)[C@@H]1[C@@H]2C(=O)N(c3ccc(F)c(Cl)c3)C(=O)[C@@H]2C2c3ccccc3C=CN21 (stereo not given in full) | Dual specificity protein phosphatase 6 (Rattus norvegicus) | 47.1 µM |
| Cc1ccc2c(c1C)NC(C(=O)O)C1CC=CC21 (stereo not given) | Dual specificity protein phosphatase 6 (Rattus norvegicus) | > 50 µM |

Give IC50 for each of the items listed below.
1. CC(C)Sc1nc2sc3c(c2c2nnc(SCC(=O)NCc4ccco4)n12)CCCC3
2. O=C1C=C(NCc2ccc(Cl)c(Cl)c2)CC1
3. Cc1cccc(NC(=O)c2cc(NC(=O)C3CCCCC3C(=O)O)ccc2N2CCCCC2)c1 (stereo not given)
4. [O-]/[N+](=C\c1ccc(OC(F)F)cc1)c1ccccc1
5. Cc1cc(NC(=O)c2ccc(S(=O)(=O)N3CCCC3)cc2)nc2c1c(=O)oc1ccccc12
6. CCCCCNC(=O)c1ccc2c(=O)[nH]c3c(C(=O)NCC4CCCO4)sc(=S)n3c2c1 (stereo not given)
7. [O-]/[N+](=C\c1ccncc1)c1ccccc1
8. O=C1Cc2ccccc2C(=O)N1CCc1ccccc1

1: > 50 µM; 2: > 50 µM; 3: > 50 µM; 4: > 50 µM; 5: > 50 µM; 6: > 50 µM; 7: > 50 µM; 8: 19.8 µM

Give IC50 for each of the items listed below.
1. O=C1c2ccccc2-c2onc3ccc(NCCCn4ccnc4)c1c23
2. CC(C)Cn1c(N)c(C(=O)COC(=O)c2cc(-c3ccco3)nc3ccccc23)c(=O)n(C)c1=O
3. FC(F)(F)c1ccc(N2CCOCC2)c(Nc2nc3ccccc3n3cnnc23)c1
4. CCCCn1c(NC(=O)c2ccccc2)c(C#N)c2nc3ccccc3nc21

1. > 50 µM
2. > 50 µM
3. > 50 µM
4. 18.4 µM
